Test system: Orchid thrips; Dichromothrips corbetti
test: B.6 Orchid thrips, floral-immersion technique
Assay type: in vivo
condition.label: 300 ppm; 72 hours after treatment
experimental.readout: % mortality in comparison to untreated controls, B.6 (%)

>>> measurement("CC(NC(=O)c1cc(C(F)(F)F)cc(C(F)(F)F)c1)c1nccnc1-n1cncn1 (stereo not shown) [WO 2021/037614 P46, reference compound]")
0
>>> measurement("CC(NC(=O)c1cc(C(F)(F)F)cc(C(F)(F)F)c1)c1nccnc1-c1ncn(CC(F)(F)F)n1 (stereo not shown) [Compound I1-13]")
100
>>> measurement("CC(NC(=O)c1cc(C(F)(F)F)cc(C(F)(F)F)c1)c1nccnc1-c1ncn(C)n1 (stereo not shown) [Compound I1-12]")
100
>>> measurement("Cc1cnn(-c2nccnc2C(C)NC(=O)c2cc(C(F)(F)F)cc(C(F)(F)F)c2)n1 (stereo not shown) [WO 2021/037614 P1, reference compound]")
0
